Listing: growth inhibition of selected molecules
Experiment: inhibition of 3D7 malaria parasite growth – strain 3D7 (AID 2306);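 note: 0% = DMSO wells and 100% = chloroquine plus artemisinin control wells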
Settings: P. falciparum 3D7 erythrocytic growth, LDH absorbance, 72 h; at 2 µM; active compounds read high
Please reply with the bare figure in % and do not write the unit itself.

COc1ccc(C(=O)CC(=O)c2ccc(OC)cc2OC)c(OC)c1	98
CCc1cn2c3c(cc(C(=O)N[C@@H](Cc4ccccc4)[C@H](O)CNC4CCCCC4)cc13)N(C)S(=O)(=O)C2	99
O=c1c2sc(-c3ccc(Cl)cc3)cc2ncn1Cc1ccc(OCCN2CCCC2)c2ccccc12	100
CC(C)COc1ccc(Cl)cc1Cc1ccc(-c2nc3ccc(CCN(C)C)cc3[nH]2)o1	92
CCN1CCN(c2cc(C)c3cc(NC(=O)c4cccc(Cl)c4)ccc3n2)CC1	100

Requested field: growth inhibition. Item: `COc1ccc(-c2cc(C(=O)N[C@@H](Cc3ccccc3)C(=O)NCCN3CCCCC3)ccc2O)cc1` 96

---

Assay: human hepatoma cell viability loss – ATP luminescence, cytotoxicity control for P. falciparum antimalarial project, primary screen (AID 2303);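 note: 0% = DMSO wells and 100% = digitonin-killed cells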
Settings: HepG2 viability, 24-48 h, at 10 µM, active compounds read high
Listing: inhibition of selected compounds
Please reply with the bare figure in % and do not write the unit itself.

The following compounds have reported results that may help.
CC(C)(C)c1ccc(CN2CCCCC(NC(=O)c3cc(-c4cccc(Cl)c4)cs3)C2)cc1 (stereo not given)	11
C(=N\Nc1nccc2sc(-c3cccnc3)cc12)/c1ccncc1	65
O=C(N[C@H]1CCN(Cc2ccc(OCCN3CCNCC3)c(Br)c2)C1)c1ccc(Cl)c(Cl)c1	69

Requested field: inhibition. Item: `O=C(Nc1ccc(Cl)cc1C(=O)Nc1ccncc1)c1ccc(Cl)cc1Cl` 8

---

Test: antimalarial activity against Dd2 strain (AID 2302);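 note: 0% = DMSO untreated growth and 100% = chloroquine plus artemisinin killed control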
Details: P. falciparum Dd2 in RBCs, LDH growth readout, 72 h; at 2 µM; active compounds read high
Listing: growth inhibition of selected molecules
Please reply with the bare figure in % and do not write the unit itself.

The following molecules have reported results that may help.
Cc1nnc2c(NC(=O)/C=C/c3ccc(OC(F)(F)F)cc3)cc3cc(Cl)ccc3n12	99
Cc1cccc2[nH]c(-c3ccc(-c4cccc(CNCC5CCCO5)c4)s3)nc12 (stereo not given)	11
O=C(Nc1cc(Cl)ccc1-n1cncn1)C1(c2ccccc2)CC1	91
Cc1ccc(C(=O)Nc2ccc(-c3nc4ccccc4[nH]3)cc2)cc1S(=O)(=O)N1CCOCC1	16
CCC(C)NCCC(c1ccccc1)c1ccccc1O (stereo not given)	74

Requested field: growth inhibition. Item: Cc1cc(C(=O)CSc2nc3ccccc3n2-c2ccccc2)c(C)n1C1CCS(=O)(=O)C1 (stereo not given) -3

Note, next up: `Cc1ccc(C(=O)Nc2ccc(Nc3ccnc4cc(-c5nccs5)ccc34)cc2O)cc1` 100

Note, next up: Nc1nc(N)c2c(n1)CCC(c1ccccc1)C2 (stereo not given) -1

Note, next up: `O=C(/C=C/c1cccc2ccccc12)NCCCCCN1CCC(c2c[nH]c3ccccc23)CC1` 6

Note, next up: `N#Cc1ccc(-c2ccc(C(=O)NCCCCN3CCC(c4ccc5c(c4OCC(N)=O)CCCC5)CC3)cc2)cc1` 23

---

Biological target: Protein kinase 7 (PK7), Plasmodium falciparum 3D7 (PF3D7_0213400)
Experiment: inhibition of Plasmodium PK7 catalytic activity – biochemical, TCAMS antimalarial set, Kinase-Glo luminescence (AID 1159587)
Settings: recombinant PfPK7, Kinase-Glo ATP depletion luminescence
Activity calls are given as the source filed them. No rule for the calls is given here.
Quantity Kind: outcome

The following compounds have reported results that may help.
CN(c1ccc(NC(=O)Nc2cc(C(F)(F)F)ccc2F)cc1)c1ccnc(NCCN2CCCC2)n1	inactive
c1cc(CNCCc2ccncc2)cc(-c2ccc(-c3nc4ccccc4[nH]3)s2)c1	inactive
Cc1cc(C(F)(F)F)nn1-c1ccc(NC(=O)c2ccco2)cc1	inactive
CS(=O)(=O)c1cc2c(Nc3ccc(N4CCOCC4)cc3)c(C(N)=O)cnc2cc1Br	inactive

Requested field: outcome. Item: `CCN(CC)CCNC(=O)c1ccc(NC(=O)c2oc3c(Cl)cccc3c2C)cc1` inactive

---

Target: Calcium-dependent protein kinase 1 (Plasmodium falciparum (isolate 3D7)) (UniProt P62344)
Sequence (P62344 whole entry, looked up): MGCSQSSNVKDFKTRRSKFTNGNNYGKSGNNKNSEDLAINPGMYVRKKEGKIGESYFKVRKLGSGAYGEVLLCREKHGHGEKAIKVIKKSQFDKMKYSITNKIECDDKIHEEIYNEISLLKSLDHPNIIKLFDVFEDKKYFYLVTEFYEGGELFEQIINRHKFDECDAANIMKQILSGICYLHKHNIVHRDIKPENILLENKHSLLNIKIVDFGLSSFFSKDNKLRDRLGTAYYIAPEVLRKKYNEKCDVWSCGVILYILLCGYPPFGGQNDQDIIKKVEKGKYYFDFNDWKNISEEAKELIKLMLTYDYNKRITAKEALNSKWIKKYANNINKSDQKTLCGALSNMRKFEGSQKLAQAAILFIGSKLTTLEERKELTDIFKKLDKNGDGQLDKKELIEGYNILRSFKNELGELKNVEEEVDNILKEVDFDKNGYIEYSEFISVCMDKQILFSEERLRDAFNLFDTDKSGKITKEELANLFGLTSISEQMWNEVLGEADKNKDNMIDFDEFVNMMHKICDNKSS
Assay: PfCDPK1 kinase inhibitors, biochemical, TCAMS library (AID 1159585);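 note: inhibitors leave more ATP so luminescence rises with inhibition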
Conditions: recombinant PfCDPK1, Kinase-Glo ATP depletion luminescence
Measured potencies and affinities stand elsewhere. Active and inactive are the calls of the source. Cut-off not given; nearly all actives show IC50 up to about 0.98 µM.
Quantity Kind: outcome

CCCc1cc(N2CCC(N3CCCC3)CC2)nc(Nc2ccc(Cl)cc2)n1	inactive
COc1ccc2nccc([C@@H](O)CN3CCC(NC(=O)C(c4cc5ccccc5o4)N4CCN(Cc5ccccc5)CC4)CC3)c2c1 (some centres undefined)	inactive
NC(=O)Nc1ccc2cn[nH]c2c1	inactive
Cc1nnsc1C(=O)Nc1ccc(-c2ccc(-c3nc4c(C)cccc4[nH]3)s2)cc1	inactive
Nc1nc(Nc2cccc(O)c2)nc2ccccc12	inactive

The record that follows has no outcome shown yet.
Give outcome (Calcium-dependent protein kinase 1 (Plasmodium falciparum (isolate 3D7)) (UniProt P62344)) of the following compound: `CCOc1ccc2nc(C)cc(NN=Cc3ccccc3[N+](=O)[O-])c2c1` inactive

---

Listing: inhibition of selected molecules
Biological target: L-lactate dehydrogenase (Plasmodium falciparum (isolate CDC / Honduras))
Test: PfLDH activity inhibition – cell lysate, 3D7 strain, counter-screen for P. falciparum growth inhibition project (AID 2304);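 note: 0% = vehicle and 100% = reference inhibitor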
Settings: P. falciparum 3D7 crude extract, LDH APAD/NBT absorbance; at 2 µM; active compounds read high
Please reply with the bare figure in % and do not write the unit itself.

The following molecules have reported results that may help.
Cc1ccc2nc(-c3cc(-c4ccc(OCc5ccccc5)cc4)cnc3N)[nH]c2c1	1
O=[N+]([O-])c1cccc(CNCC2CCC(CNCc3cccc([N+](=O)[O-])c3)CC2)c1 (stereo not given)	-1

Requested field: inhibition. Item: `CCc1ccc(C(=O)Nc2cccc(CN3CCCN(Cc4ccc(O)cc4)CC3)c2)cc1` -1

---

Test: human hepatoma cell viability loss – ATP luminescence, cytotoxicity control for P. falciparum antimalarial project, primary screen (AID 2303);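 note: 0% = DMSO wells and 100% = digitonin-killed cells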
Details: HepG2 viability, 24-48 h, at 10 µM
Active and inactive are the calls of the source.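 How the source made its calls: active means inhibition above 50%; inactive means the rest.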
Assign a class; possible classes are t (active), f (inactive)

Consider the following illustrative entries.
Cc1[nH]c(C)c(-c2ccc(OCCOc3ccc(C(F)(F)F)cn3)cc2)c(=O)c1Br	f
O=C(Nc1cccc(-c2cccc(F)c2)c1)C1CCN(Cc2ccc(O)cc2)CC1	f
Cc1ccc(CCC(C)NCC(O)c2cccc(C(F)(F)F)c2)cc1 (stereo not given)	f

Record request — test call for Cc1cccc2c3c([nH]c12)C1(CCN(CCc2ccccc2)CC1)NC(C(=O)NCc1ccccc1)C3 (stereo not given) f

Note, next up: CC1CCC2(CC1)N=C(N)N=C(N)N2OCCCCCCCCO (stereo not given) f

Note, next up: `CCC(C)(C)c1ccc(S(=O)(=O)Nc2ccc(Cl)c(OCCN3CCCCC3)c2)cc1` t

Note, next up: `Cc1[nH]nc2cc(Nc3ccnc(Nc4cccc(CN5CCOCC5)c4)n3)ccc12` f

Note, next up: `Cc1cc2nc(-c3ccc(C(=O)NCc4ccc(C(C)(C)C)cc4)cc3)[nH]c2cc1C` f

Note, next up: `CNC(=O)c1cnc(Nc2ccc(N3CCN(C)CC3)c(C)c2)nc1NC` f

---

Test: inhibition of 3D7 malaria parasite growth – strain 3D7 (AID 2306);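 note: 0% = DMSO wells and 100% = chloroquine plus artemisinin control wells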
Conditions: P. falciparum 3D7 erythrocytic growth, LDH absorbance, 72 h; at 2 µM; active compounds read high
Listing: growth inhibition of selected compounds
Please reply with the bare figure in % and do not write the unit itself.

CC(C)C[C@H](NC(=O)c1ccc(OCCN2CCOCC2)cc1)C(=O)N[C@H](/C=N/N(C)C(=O)c1ccccc1)CCc1ccccc1	91
c1cncc(CCNCc2cccc(-c3csc(-c4nc5ccccc5[nH]4)c3)c2)c1	100
CC(C)(Cc1ccc(Cl)cc1)NCCCCCCNCCc1ccc(O)c(O)c1	90

Requested field: growth inhibition. Item: `CN1CCC(c2cc3c(cc2Br)CCN3C(=O)Nc2ccc(-c3ccncc3)c(Cl)c2)CC1` 91

Note, next up: `COc1ccccc1CCNc1nc(C)cc(N[C@@H](Cc2ccccc2)C(=O)NCCOc2ccccc2)n1` 101

Note, next up: `COc1cc(F)c2nccc([C@@H](O)CN3CC[C@@H](NC(=O)OCc4ccccc4)[C@@H](F)C3)c2c1` 99

Note, next up: `Oc1cc2c(cc1CN1CCN(Cc3ccccc3F)CC1)CCC2` 98

Note, next up: CCCCC(NCC)c1ccc(OCCOc2ccc(C(CCCC)NCC)cc2)cc1 (centres undefined) 101

Note, next up: CN(CCC(CCN1CCC(c2c[nH]c3ccccc23)CC1)c1ccccc1)C(=O)Nc1ccc(Cl)c(Cl)c1 (centres undefined) 91

---

Listing: inhibition of selected molecules
Assay: human hepatoma cell viability loss – ATP luminescence, cytotoxicity control for P. falciparum antimalarial project, primary screen (AID 2303);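 note: 0% = DMSO wells and 100% = digitonin-killed cells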
Conditions: HepG2 viability, 24-48 h, at 10 µM, active compounds read high
Active and inactive are the calls of the source.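 How the source made its calls: active means inhibition above 50%; inactive means the rest.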

The following molecules have reported results that may help.
COc1ccc2nccc([C@@H](O)CN3CCC(NCCOc4cccc(F)c4F)CC3)c2c1	9% (inactive)
O=C(Nc1ccc(-c2ccccc2)cc1)Nc1cccc(Cn2ncc(N3CCCNCC3)c(Cl)c2=O)c1	14% (inactive)
CC(C)c1ccc(CN2CCC(NC(=O)c3ccc(-c4ccccc4F)s3)CC2)cc1	46% (inactive)
COc1ccc(N2CCN(CCc3ccc(NC(=O)c4ccc([N+](=O)[O-])cc4)cc3)CC2)c(OC)c1	45% (inactive)
CCN(CCCN1CCCCC1)c1cc(C)nc(Nc2ccc(C)cc2)n1	17% (inactive)
NC1CCCN(Cc2cccc(-c3ccc(-c4nc5ccc(F)cc5[nH]4)cc3)c2)C1 (stereo not given)	40% (inactive)
c1ccc2c(c1)ncc1c3ccccc3[nH]c21	-1% (inactive)
CCOc1cc(CC)ccc1C1CCN(CCCCNC(=O)c2ccc(NC(=O)c3ccc(C#N)cc3)cc2)CC1	55% (active)

Requested field: inhibition. Item: `Cc1[nH]c(C)c(-c2ccc(-c3ccc(Cl)cc3)nc2)c(=O)c1Cl` 8% (inactive)

Note, next up: CN(c1ccc(NC(=O)c2cccc(F)c2)cc1)C1CCCN(Cc2cccc(O)c2)C1 (stereo not given) 13% (inactive)
